molecular target: human recombinant kinase full-length AKT1 E17K (Homo sapiens, UniProt P31749, E17K); construct: Purified human recombinant kinase full-length AKT1 E17K was expressed in insect cells; assay: AKT1 E17K kinase assay (TR-FRET, Lance); details: 0.6 nM AKT1 E17K, 50 nM Ulight-CREBtide, either 50 μM ATP or 2 mM ATP, 60 min at RT
Sequence (P31749 whole entry E17K): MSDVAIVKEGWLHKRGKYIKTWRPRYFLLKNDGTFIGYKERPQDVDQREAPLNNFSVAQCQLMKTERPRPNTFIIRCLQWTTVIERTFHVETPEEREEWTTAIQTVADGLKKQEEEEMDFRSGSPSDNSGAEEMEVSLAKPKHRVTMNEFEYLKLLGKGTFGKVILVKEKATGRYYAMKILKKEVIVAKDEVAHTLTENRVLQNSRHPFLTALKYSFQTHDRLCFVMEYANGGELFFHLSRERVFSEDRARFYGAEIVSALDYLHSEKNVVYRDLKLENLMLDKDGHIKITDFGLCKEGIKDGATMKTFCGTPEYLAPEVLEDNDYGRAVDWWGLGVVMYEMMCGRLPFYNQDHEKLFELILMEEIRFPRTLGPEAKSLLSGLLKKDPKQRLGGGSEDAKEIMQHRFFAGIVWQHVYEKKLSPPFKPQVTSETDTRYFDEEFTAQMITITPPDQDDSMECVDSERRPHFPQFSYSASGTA
pIC50: −log10 of the molar value.
readout-type: pIC50

Request - read-out pIC50 | tested on human recombinant kinase full-length AKT1 E17K (Homo sapiens, UniProt P31749, E17K) | molecule Nc1ncccc1-c1nc2ccc(-c3ccccc3F)nc2n1-c1ccc([C@@H]2CCN(C[C@H]3CC[C@H](C(=O)O)CC3)C2)cc1 (single isomer, unassigned) [Compound I-231] > 6.30

Request - read-out pIC50 | tested on human recombinant kinase full-length AKT1 E17K (Homo sapiens, UniProt P31749, E17K) | molecule Nc1ncccc1-c1nc2ccc(-c3ccccc3)cc2n1-c1ccc(C2CN(C[C@H]3CC[C@H](C(=O)O)CC3)C2)cc1 [Compound I-221] 5.70 to 6.30

Request - read-out pIC50 | tested on human recombinant kinase full-length AKT1 E17K (Homo sapiens, UniProt P31749, E17K) | molecule COC(=O)[C@H]1CC[C@H](C(=O)Nc2ccc(-n3c(-c4cccnc4N)nc4ccc(-c5ccccc5)nc43)cn2)CC1 [Compound I-113] 5.70 to 6.30

Request - read-out pIC50 | tested on human recombinant kinase full-length AKT1 E17K (Homo sapiens, UniProt P31749, E17K) | molecule CC1(C(=O)O)CCN(Cc2ccc(-n3c(-c4cccnc4N)nc4ccc(-c5ccccc5)nc43)cc2)CC1 [Compound I-86] 5.70 to 6.30

Request - read-out pIC50 | tested on human recombinant kinase full-length AKT1 E17K (Homo sapiens, UniProt P31749, E17K) | molecule Nc1ncccc1-c1nc2ccc(-c3ccccc3)nc2n1-c1ccc(C2CN(C[C@H]3CC[C@@H](C(=O)O)CC3)C2)cc1 [Compound I-36] 5.70 to 6.30

Request - read-out pIC50 | tested on human recombinant kinase full-length AKT1 E17K (Homo sapiens, UniProt P31749, E17K) | molecule Nc1ncccc1-c1nc2ccc(-c3ccccc3)nc2n1-c1ccc(NC(=O)C23CC(C(=O)O)(C2)C3)nc1 [Compound I-7] ≤ 5.70

Request - read-out pIC50 | tested on human recombinant kinase full-length AKT1 E17K (Homo sapiens, UniProt P31749, E17K) | molecule Cc1nc(CN(C)[C@H]2CC[C@H](C(=O)O)CC2)ccc1-n1c(-c2cccnc2N)nc2ccc(-c3ccccc3)nc21 [Compound I-183] ≤ 5.70

====

Readings of IC50 for the listed compounds
molecular target: human recombinant kinase full-length AKT1 E17K (Homo sapiens, UniProt P31749, E17K); construct: Purified human recombinant kinase full-length AKT1 E17K was expressed in insect cells; assay: AKT1 E17K kinase assay (TR-FRET, Lance); settings: 0.6 nM AKT1 E17K, 50 nM Ulight-CREBtide, either 50 μM ATP or 2 mM ATP, 60 min at RT

# count of solved cases: 3
[[record]]
compound = "Nc1ncccc1-c1nc2ccc(-c3ccccc3)nc2n1-c1ccc(C2CCN(C[C@@H]3CCC[C@H](C(=O)O)C3)CC2)cc1 (stereo in doubt) [Compound I-192]"
reported_value = "0.5 to 2 µM"

[[record]]
compound = "NC(=O)C1CCC(CN2CC(c3ccc(-n4c(-c5cccnc5N)nc5ccc(-c6ccccc6)nc54)cc3)C2)CC1 (stereo not shown) [Compound I-140]"
reported_value = "0.5 to 2 µM"

[[record]]
compound = "Nc1ncccc1-c1nc2ccc(-c3ccccc3)nc2n1-c1ccc(C(=O)N2CCC(C(=O)O)CC2)cc1 [Compound I-20]"
reported_value = "≥ 2 µM"


Report IC50 for Nc1ncccc1-c1nc2ccc(-c3ccccc3)nc2n1-c1ccc(CN2CC3(CC(C(=O)O)C3)C2)cc1 [Compound I-93] please. 0.5 to 2 µM

Report IC50 for Nc1ncccc1-c1nc2ccc(-c3ccccc3)nc2n1-c1ccc(NC2CCC(C(=O)O)C2)nc1 (stereo not shown) [Compound I-13] please. ≥ 2 µM

Report IC50 for Nc1ncccc1-c1nc2ccc(-c3ccccc3)nc2n1-c1ccc(NC(=O)N2CCC(C(=O)O)C2)cc1 (stereo not shown) [Compound I-52] please. < 0.5 µM

Report IC50 for CN(CCc1ccc(-n2c(-c3cccnc3N)nc3ccc(-c4ccccc4)nc32)cc1)[C@H]1CC[C@H](C(=O)O)CC1 [Compound I-158] please. 0.5 to 2 µM
